Target: human mOR (Homo sapiens (Human))
Sequence (P35372 whole entry): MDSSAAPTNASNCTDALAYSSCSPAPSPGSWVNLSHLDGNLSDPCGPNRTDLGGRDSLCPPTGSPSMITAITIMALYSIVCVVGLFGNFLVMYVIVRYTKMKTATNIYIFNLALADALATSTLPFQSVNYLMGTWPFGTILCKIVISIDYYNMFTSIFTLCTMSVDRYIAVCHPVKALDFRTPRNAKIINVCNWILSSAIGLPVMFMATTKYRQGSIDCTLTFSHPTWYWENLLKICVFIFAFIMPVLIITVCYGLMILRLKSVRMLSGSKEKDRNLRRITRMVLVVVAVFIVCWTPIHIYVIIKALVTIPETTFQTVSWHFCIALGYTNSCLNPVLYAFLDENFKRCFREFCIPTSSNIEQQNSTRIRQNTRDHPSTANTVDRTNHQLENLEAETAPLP
Test: cell-based

>  <molecule>
CC(C)[C@@H](CC(=O)NC[C@H](Cc1ccc(C(N)=O)cc1)N(C)C)c1ccccc1

>  <system>
human mOR (Homo sapiens (Human))

>  <IC50>
< 300 nM

$$$$
>  <molecule>
CC[C@H](CC(=O)NC[C@H](Cc1c(C)cc(O)cc1C)N(C)C)c1cnc(C)s1

>  <system>
human mOR (Homo sapiens (Human))

>  <IC50>
< 300 nM

$$$$
>  <molecule>
CC(=O)Oc1ccc(C[C@@H](CNC(=O)C[C@H](C)c2ccccc2)N(C)C)cc1Cl

>  <system>
human mOR (Homo sapiens (Human))

>  <IC50>
< 300 nM

$$$$
>  <molecule>
Cc1ncc([C@@H](CC(=O)NC[C@H](Cc2ccc(C(N)=O)c(F)c2C)N(C)C)C2(C(F)(F)F)CC2)s1

>  <system>
human mOR (Homo sapiens (Human))

>  <IC50>
< 300 nM

$$$$
>  <molecule>
CN(C)[C@H](CNC(=O)C[C@H](c1cccnc1)C1CC1)Cc1ccc(O)c(Cl)c1

>  <system>
human mOR (Homo sapiens (Human))

>  <IC50>
< 300 nM

$$$$
>  <molecule>
CNC(=O)c1ccc(C[C@@H](CNC(=O)CC(c2ccc(Cl)cn2)C2(C(F)(F)F)CC2)N(C)C)c(Cl)c1 (some centres unmarked)

>  <system>
human mOR (Homo sapiens (Human))

>  <IC50>
< 300 nM

$$$$
>  <molecule>
Cc1ncc([C@@H](CC(=O)NC[C@H](Cc2ccc3[nH]c(=O)oc3c2C)N(C)C)C2(C(F)(F)F)CC2)cn1

>  <system>
human mOR (Homo sapiens (Human))

>  <IC50>
> 3000 nM

$$$$
>  <molecule>
CN(C)[C@H](CNC(=O)C[C@H](c1ccsc1)C1(C(F)(F)F)CC1)Cc1ccc(C(N)=O)c(F)c1

>  <system>
human mOR (Homo sapiens (Human))

>  <IC50>
> 3000 nM

$$$$
>  <molecule>
CN(C)[C@H](CNC(=O)C[C@H](CC1CCC1)c1ccccc1)Cc1ccc(C(N)=O)cc1

>  <system>
human mOR (Homo sapiens (Human))

>  <IC50>
< 300 nM

$$$$
>  <molecule>
CN(C)[C@H](CNC(=O)C[C@@H](c1ccccc1)C1CC1)Cc1ccc2c(c1)CC(=O)N2

>  <system>
human mOR (Homo sapiens (Human))

>  <IC50>
< 300 nM

$$$$
>  <molecule>
Cc1ccc([C@@H](CC(=O)NC[C@H](Cc2ccc(C(N)=O)c(F)c2)N(C)C)C2(C(F)(F)F)CC2)s1

>  <system>
human mOR (Homo sapiens (Human))

>  <IC50>
< 300 nM

$$$$
>  <molecule>
CNC(=O)c1ccc(C[C@@H](CNC(=O)CC(c2ncccc2F)C2(C(F)(F)F)CC2)N(C)C)c(Cl)c1 (some centres unmarked)

>  <system>
human mOR (Homo sapiens (Human))

>  <IC50>
< 300 nM

$$$$
>  <molecule>
CNC(=O)c1ccc(C[C@@H](CNC(=O)CC(c2cncc(F)c2)C2(C(F)(F)F)CC2)N(C)C)c(Cl)c1 (some centres unmarked)

>  <system>
human mOR (Homo sapiens (Human))

>  <IC50>
< 300 nM

$$$$
>  <molecule>
CNC(=O)c1ccc(C[C@@H](CNC(=O)CC(c2cc(C)ccn2)C2(C(F)(F)F)CC2)N(C)C)c(Cl)c1 (some centres unmarked)

>  <system>
human mOR (Homo sapiens (Human))

>  <IC50>
> 3000 nM

$$$$
>  <molecule>
CC(C)[C@@H](CC(=O)NC[C@H](Cc1ccc(C(N)=O)cc1Cl)N(C)C)c1ccccc1

>  <system>
human mOR (Homo sapiens (Human))

>  <IC50>
> 3000 nM

$$$$
>  <molecule>
Cc1cc(O)cc(C)c1C[C@@H](CNC(=O)CC(c1cccnc1)C1(C(F)(F)F)CC1)N(C)C (some centres unmarked)

>  <system>
human mOR (Homo sapiens (Human))

>  <IC50>
< 300 nM

$$$$
>  <molecule>
CN(C)[C@H](CNC(=O)C[C@H](c1cccnc1)C1(C)CC1)Cc1ccc2[nH]ncc2c1

>  <system>
human mOR (Homo sapiens (Human))

>  <IC50>
< 300 nM

$$$$
>  <molecule>
CNC(=O)c1ccc(C[C@@H](CNC(=O)CC(c2ccncc2)C2(C(F)(F)F)CC2)N(C)C)c(C)c1 (some centres unmarked) [Compound 134]

>  <system>
human mOR (Homo sapiens (Human))

>  <IC50>
< 300 nM

$$$$
>  <molecule>
CNC(=O)c1ccc(C[C@@H](CNC(=O)CC(c2cccnc2)C2(C(F)(F)F)CC2)N(C)C)c(Cl)c1 (some centres unmarked)

>  <system>
human mOR (Homo sapiens (Human))

>  <IC50>
< 300 nM

$$$$
>  <molecule>
CNC(=O)c1ccc(C[C@@H](CNC(=O)C[C@H](c2ccc(Cl)cc2)C2(C(F)(F)F)CC2)N(C)C)c(C)c1

>  <system>
human mOR (Homo sapiens (Human))

>  <IC50>
< 300 nM

$$$$
>  <molecule>
COc1ccc(C(CC(=O)NC[C@H](Cc2c(C)cc(O)cc2C)N(C)C)C2(C(F)(F)F)CC2)cn1 (some centres unmarked)

>  <system>
human mOR (Homo sapiens (Human))

>  <IC50>
< 300 nM

$$$$
>  <molecule>
Cc1c(C[C@@H](CNC(=O)C[C@H](c2cccnc2)C2(C)CC2)N(C)C)ccc2[nH]ncc12

>  <system>
human mOR (Homo sapiens (Human))

>  <IC50>
< 300 nM

$$$$
>  <molecule>
CN(C)[C@H](CNC(=O)C[C@@H](c1ccncc1)C1(C(F)(F)F)CC1)Cc1ccc2[nH]ncc2c1

>  <system>
human mOR (Homo sapiens (Human))

>  <IC50>
< 300 nM

$$$$
>  <molecule>
CN(C)[C@H](CNC(=O)C[C@H](c1ccoc1)C1(C(F)(F)F)CC1)Cc1ccc(C(N)=O)c(F)c1

>  <system>
human mOR (Homo sapiens (Human))

>  <IC50>
< 300 nM

$$$$
>  <molecule>
Cc1ccc([C@@H](CC(=O)NC[C@H](Cc2ccc3[nH]ncc3c2)N(C)C)C2(C(F)(F)F)CC2)cn1

>  <system>
human mOR (Homo sapiens (Human))

>  <IC50>
< 300 nM

$$$$
>  <molecule>
CNC(=O)c1ccc(C[C@@H](CNC(=O)CC(c2cncc(OC)c2)C2(C(F)(F)F)CC2)N(C)C)c(Cl)c1 (some centres unmarked)

>  <system>
human mOR (Homo sapiens (Human))

>  <IC50>
> 3000 nM

$$$$
>  <molecule>
C[C@@H](CC(=O)NC[C@H](Cc1ccc2c(c1)OCC(=O)N2)N(C)C)c1ccccc1

>  <system>
human mOR (Homo sapiens (Human))

>  <IC50>
< 300 nM

$$$$
>  <molecule>
CN(C)[C@H](CNC(=O)C[C@H](c1ccccc1)C1(C(F)(F)F)CC1)Cc1ccc2c(c1)CC(=O)N2

>  <system>
human mOR (Homo sapiens (Human))

>  <IC50>
< 300 nM

$$$$
>  <molecule>
CN(C)[C@H](CNC(=O)C[C@H](c1ccncc1)C1(C(F)(F)F)CC1)Cc1ccc(O)cc1Cl

>  <system>
human mOR (Homo sapiens (Human))

>  <IC50>
< 300 nM

$$$$
